# Test system: HL-60(TB) leukemia
# assay.procedure: NCI-60 one-dose screen, 48 h (100 = growth as untreated, 0 = no growth, -100 = all killed)
# settings: 10 µM unless noted
Compounds without any hit were thinned out: in the full panel of roughly 83,000, 20% have a hit.

# smiles.structure, growth [%]
measured = [
    ("Cc1cn(-c2cc(NC(=O)c3cncc(C#Cc4cnc(N)c5ncccc45)c3)cc(C(F)(F)F)c2)cn1", 18.7),
    ("O=C1/C(=C/c2cccc(O)c2)COc2ccc(O)cc21", 52.1),
    ("Cc1cc(C)cc(CCCCCCCCCCCCCCCCCC(=O)O)c1", 71),
]
